This section presents IC50 values reported for Tyrosine-protein kinase JAK2 (Homo sapiens) in the literature.
readoutType: IC50

# molecule, subjectOfTest, measurement
measured = [
    ("CCS(=O)(=O)N1CC(CC#N)(n2cc(-c3nc(Nc4cncnc4)nc4ccsc34)cn2)C1", "Tyrosine-protein kinase JAK2 (Homo sapiens)", "< 0.05 µM"),
    ("Nc1ncnc2c1c(-c1cc(OCC34CCC(CC3)O4)ccc1F)cn2[C@H]1C[C@@H](N2CC[S+]([O-])CC2)C1 (relative stereo)", "Tyrosine-protein kinase JAK2 (Homo sapiens)", "> 10 µM"),
    ("Cn1ccc(-c2cc3nccn3c(-c3cnn(C4(CCF)CN(S(=O)(=O)C(F)(F)F)C4)c3)n2)cc1=O", "Tyrosine-protein kinase JAK2 (Homo sapiens)", "0.1 to 1 µM"),
    ("C[C@H](O)C(=O)N1CC[C@H](Oc2ccc(-c3ncnc(Nc4cnn(C)c4CO)n3)cc2C#N)[C@H](F)C1", "Tyrosine-protein kinase JAK2 (Homo sapiens)", "≥ 1 µM"),
    ("N#Cc1cc(-c2ncnc(Nc3ccc(N4CCN(C5COC5)CC4)cc3)n2)ccc1NC(=O)CC(F)(F)F", "Tyrosine-protein kinase JAK2 (Homo sapiens)", "0.008 µM"),
    ("COc1ccc(-c2cc(C(N)=O)c3[nH]c4ccc(C(=O)N5CCC(O)CC5)cc4c3c2)cc1F", "Tyrosine-protein kinase JAK2 (Homo sapiens)", "0.001 µM"),
    ("N#CCC1(n2cc(-c3ncnc4[nH]ccc34)cn2)CN(C2CCN(S(=O)(=O)c3ccc(C#N)cc3)CC2)C1", "Tyrosine-protein kinase JAK2 (Homo sapiens)", "0.01 to 0.05 µM"),
    ("N#CCC(CC1CCN(C(=O)c2ccc(F)cc2F)CC1)n1cc(-c2ccnc(Nc3ccc(N4CCNCC4)cc3)n2)cn1 (racemic)", "Tyrosine-protein kinase JAK2 (Homo sapiens)", "< 0.1 µM"),
    ("C#CCCCNc1nc(Nc2ccc3c(c2)NC[C@H](O)CO3)ncc1C(N)=O", "Tyrosine-protein kinase JAK2 (Homo sapiens)", "< 0.01 µM"),
    ("N#Cc1cc(-c2ncnc(Nc3ccc(N4CCNCC4)c(F)c3)n2)ccc1O[C@H]1CCN(C=O)C[C@H]1F", "Tyrosine-protein kinase JAK2 (Homo sapiens)", "0.274 µM"),
    ("CC#CCC(C1CC1)n1cc(-c2nc(-c3cnn(C)c3)cc3nccn23)cn1 (centres unmarked)", "Tyrosine-protein kinase JAK2 (Homo sapiens)", "0.1 to 1 µM"),
    ("COc1cccc(F)c1COc1ccc2cc1COCC[C@H](C)CNC(=O)c1ccc(c(N)c1)-c1ccnc(n1)N2", "Tyrosine-protein kinase JAK2 (Homo sapiens)", "1 to 10 µM"),
    ("CCNC(=O)c1ccc(N2CC(CC#N)(n3cc(-c4ncnc5[nH]ccc45)cn3)C2)cn1", "Tyrosine-protein kinase JAK2 (Homo sapiens)", "≤ 0.01 µM"),
    ("CN1CCN(C(=O)c2ccc(-c3cnc4ccc(NCc5cc(F)ccc5F)nn34)cc2)CC1", "Tyrosine-protein kinase JAK2 (Homo sapiens)", "0.016 µM"),
    ("CNC(=O)N1CCC(Oc2ccc(-c3ncnc(Nc4ccc(N5CCN(C6COC6)CC5)cc4)n3)cc2C#N)CC1", "Tyrosine-protein kinase JAK2 (Homo sapiens)", "> 1 µM"),
    ("N#CCC1(n2ccc(-c3ncnc4[nH]ccc34)c2)CN(C2CCN(C(=O)c3ccnc(C(F)(F)F)n3)CC2)C1", "Tyrosine-protein kinase JAK2 (Homo sapiens)", "0.05 to 0.1 µM"),
    ("COc1cc(Nc2nccc(Nc3ccc(C)c(CC#N)c3)n2)ccc1N1CCN(C)CC1", "Tyrosine-protein kinase JAK2 (Homo sapiens)", "< 0.01 µM"),
]
